pIC50: recorded values
experiment: HepG2 cytotoxicity screening (CellTiter-Glo); details: human, uninfected HepG2-A16-CD81 (EGFP) hepatocytes
pIC50: −log10 of the molar value.

Previously resolved entries follow.
>  <molecule>
COCc1noc(-c2ccc(N3CCCCC3CO)nc2)n1 (stereo not drawn)

>  <pIC50>
< 4.60

$$$$
>  <molecule>
Cn1cc(NS(=O)(=O)c2ccc(OC(F)(F)F)cc2)ccc1=O

>  <pIC50>
< 4.60

$$$$
>  <molecule>
CC(C)(C)n1ncc2c1CCCC2NCc1ccc2c(c1)OCCO2 (stereo not drawn)

>  <pIC50>
< 4.60

$$$$
>  <molecule>
Cc1cc(NC(=O)c2ccc(CN3CC[C@H](O)C3)cc2)ccc1F

>  <pIC50>
< 4.30

$$$$
>  <molecule>
CC(C)(C)c1nc(CN2CCCC(Cn3cncn3)C2)cs1 (stereo not drawn)

>  <pIC50>
< 4.30

$$$$
>  <molecule>
CC(C)c1cc(=O)[nH]c(-n2nc(C3CC3)cc2N)n1

>  <pIC50>
4.72

$$$$

## Task Please give measured pIC50 of the following entry: CCCc1cncnc1N1CCC(NCc2cc3ccccc3[nH]2)CC1
## Result < 4.60

## Task Please give measured pIC50 of the following entry: Clc1ccc(-c2ccc(C3CNCCO3)nc2)cc1 (stereo not drawn)
## Result < 4.60

## Task Please give measured pIC50 of the following entry: CCOc1ccc(CN2CCCC(c3cc4ncccc4[nH]3)C2)cc1 (stereo not drawn)
## Result < 4.60

Reference source for all entries: paper PMC7155171
